Could you please report measured protein stability index for the items listed next?
- Protocol: protein stability index of a GFP-peptide fusion (GPS, HEK-293T) (PSI 1-6); higher = more stable;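 also: 24-mer peptide tiles fused after GFP, lentivirally expressed, FACS-sorted into six equal bins by GFP/DsRed ratio, decoded by Illumina sequencing, PSI is the read-weighted mean bin number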
- Details: treatment: MLN4924 1 uM, 8 h; c terminus: a fixed tail appended
No unit in the answer, please; the number alone is enough.

protein stability index reading for LSTNDKTIKLWKITERDKRPEGYN [PPP2R2C] : 3.79

protein stability index reading for CRLRCHPPRGPLAKHRLVPPAQGR [TRIM9] : 3.47

protein stability index reading for RERPLNVFCDMETDGGGWLVFQRR [TNXB] : 2.79

protein stability index reading for CKCSEGFVLAEDGRRCKKCTEGPI [MATN2] : 5.41

protein stability index reading for EVPLISFTGSQPTAERITQLSAPH [ALDH8A1] : 3.96

protein stability index reading for ILGPVVGGYLTELEDGFYLTAFIC [MFSD9] : 3.05

protein stability index reading for EVTLSEAGSTAGAAETRGAVEGAA [PALM] : 5.43

protein stability index reading for GKETMCTVDGLHFNSTYNARVKAF [TRIM9] : 3.08

protein stability index reading for LSLLDNNIPGNSTLITAVELERFV [FBXO33] : 2.36

protein stability index reading for NLETNEWRYVSSLPQPLAAHAGAV [KLHL14] : 2.87

protein stability index reading for CSSSGKDGNLCLHVPNPPSGISFP [HESX1] : 3.25

protein stability index reading for NAPNSLGVSALCAICGDRATGKHY [HNF4A] : 3.2

protein stability index reading for MVQVACGASHVLALSTERELFAWG [NEK8] : 2.32

protein stability index reading for FRTKFETEQALRLSVEADINGLRR [KRT17] : 3.38

protein stability index reading for RGTHAVVGVATARAPLHSVGYTAL [SPSB4] : 2.63

protein stability index reading for KSSIYESDFQIEPGFYATYESTLF [MIA2] : 2.3

protein stability index reading for CDKKAMVWDMRSGQCVQAFETHES [GNB5] : 3.73

protein stability index reading for KHGIEYQSKPLLSAFADIIHSLKE [FADS1] : 2.81

protein stability index reading for LLFKDLIKLFACYNDGVINLLEKF [SNAP91] : 2.81

protein stability index reading for DADILGLKKSNSAPSKKAAKDPGK [FBF1] : 5.22

protein stability index reading for TCVAVGSPMPYVKWMLGAEDLTPE [PTPRD] : 3.14

protein stability index reading for RALNSVPVIIAAVGTRQNEELPCT [RHOBTB3] : 3.46

protein stability index reading for DFCEPSFVTGNCLEISPDCSQYDR [PCMTD2] : 4.4

protein stability index reading for NAYHIERLMSFRPICSANHKESKM [CRYBA1] : 3.29

protein stability index reading for GQRQLMVPARDGTSCKLTDLRGVC [ADAMTSL2] : 3.01

protein stability index reading for MATYLRYVRRLDFFEKPDYDYLRK [CSNK1G3] : 2.32

protein stability index reading for KMNGSHRDQGSSALSGVGGIRLPN [IKZF1] : 3.8

protein stability index reading for PGKYFSAAEYHAQRLKAVIVIQTY [IQUB] : 2.5

protein stability index reading for YQELLGLSFEQMTDAHVWNKSVTL [NLN] : 2.3

protein stability index reading for EEETQFYISETVLAIDAIHQLGFI [STK38L] : 2.58

protein stability index reading for SRYRSLRPNRQLGSMVEIAKQLQA [TRIM39] : 2.92

protein stability index reading for PDDVDYATNPHVKPPYSYATLICM [FOXJ1] : 2.2

protein stability index reading for EAFLAQFSQLEDKFPGQSSFLWQR [TOR1AIP2] : 2.5

protein stability index reading for YEGGHIKGAVNLHMEEEVEDFLLK [CDC25A] : 4.51

protein stability index reading for LLGGDLRYHLQQNVHFKEETVKLF [STK32A] : 2.6

protein stability index reading for RPLGIRAGPNGTLFVADAYKGLFE [APMAP] : 2.61

protein stability index reading for APDDSKAQAHRIHIDPEIQDGSPT [PDLIM4] : 5.47

protein stability index reading for YGRSWESYSSCGDFHYCDREHVCR [RBMY1A1] : 2.66

protein stability index reading for QFYRNLGKSGLRVSCLGLGTWVTF [KCNAB2] : 2.2

protein stability index reading for GLLKYCSLLVHGFKPACMSEIKNL [TENT5D] : 2.59

protein stability index reading for FPYVVLACFLVRGLLLRGAVDGIL [SLC6A17] : 3.12

protein stability index reading for SHKRKRSSGSFCYCHPDSETDEDE [GMCL1] : 5.34

protein stability index reading for LLFAGSSLASQVHAAAVNGDKGAL [INVS] : 2.76

protein stability index reading for DILMEEEEGVVGGLSGGALSPLRA [TFE3] : 4.11

protein stability index reading for AKECMLQEENKSLREENKALREEN [CBY2] : 5.51

protein stability index reading for GDAGSRGPMGMRGPPGPQGPPGSP [EMID1] : 4.54

protein stability index reading for KWWSDRLALFPLLPKVLQKYWCVT [ZBED1] : 2.73

protein stability index reading for QPFYHDDSYTATGYGRAPGGLSLH [JUNB] : 3.36

protein stability index reading for MSDSTWMSADPHLASSLSPSQDER [NOL4L] : 5.18

protein stability index reading for TYEVRMRTNLPIFKLKESCVRRRY [SNX12] : 2.54

protein stability index reading for ELDSSSSLCVLVSTVGKLCRLINE [CEP70] : 3.6

protein stability index reading for RGMATKLLARPGTGEHREFKLDKK [FBF1] : 4.62

protein stability index reading for CGHTFCRLCLPALSQMGAQSSGKI [TRIM15] : 2.36

----------
- Protocol: protein stability index of a GFP-peptide fusion (GPS, HEK-293T) (PSI 1-6); higher = more stable
- Details: treatment: DMSO; c terminus: a fixed tail appended
# cutoff 3 applies to protein stability index; >= gives t, < gives f

Ask: Tell me whether protein stability index is at least 3 here: IDLSHVTSKCGSLKNIRHRPGGGR [MAP2]
Result: t

Ask: Tell me whether protein stability index is at least 3 here: RAPKVLGTTLVVGLLAGVGYFAFM [GDAP1]
Result: t

Ask: Tell me whether protein stability index is at least 3 here: LALEEPVDYKQSVLNVAGEAGGKQ [SLC6A17]
Result: t

Ask: Tell me whether protein stability index is at least 3 here: AAQSTKSPWNFLGDELYEQSDEEQ [CLPTM1]
Result: t

Ask: Tell me whether protein stability index is at least 3 here: CRERWHNHLNPEVKKSCWTEEEDR [MYBL2]
Result: t

Ask: Tell me whether protein stability index is at least 3 here: PPGHHAEQDAACGFCFFNSVAVAA [HDAC6]
Result: f

Ask: Tell me whether protein stability index is at least 3 here: RQPRDELERVRVSCTIIFLASIFQ [TMEM175]
Result: f

Ask: Tell me whether protein stability index is at least 3 here: FFYGETVTDYFFTLVQREEPLRIL [CDS2]
Result: f

Ask: Tell me whether protein stability index is at least 3 here: IAKELSKTYQETPEIDMFLNVATF [ZBED1]
Result: f

Ask: Tell me whether protein stability index is at least 3 here: FQTAIDIFEDRIRGIDIIKWMERY [TRAF3IP2]
Result: f

----------
Could you please report measured protein stability index for the items listed next?
- Protocol: protein stability index of a GFP-peptide fusion (GPS, HEK-293T) (PSI 1-6); higher = more stable
- Details: treatment: MLN4924 1 uM, 8 h; c terminus: a fixed tail appended
No unit in the answer, please; the number alone is enough.

protein stability index reading for AVAHMKYMGKGSMTGLALKHMFER [MATN2] : 2.34

protein stability index reading for MERPLCSHLCSCLAMLALLSPLSL [LOXL2] : 3.46

protein stability index reading for RHCKKYWLISEEEKTQKNQCWKSL [FBXO3] : 2.96

protein stability index reading for KWLPQQNAAHSLLSTNDKTIKLWK [PPP2R2C] : 3.09

protein stability index reading for NYCLLFLIYTVMLAFRSGSDNLLV [SLC35F2] : 3.29

protein stability index reading for MKIFREKIEDFREEMWTFRGKIHA [CCDC70] : 2.39

protein stability index reading for ALSCHEQEMVVSSLVIGALLASLT [SLC2A12] : 3.09

protein stability index reading for LLGEIDLEKESDTPLQQVSIEEIL [LSM1] : 4.93

protein stability index reading for EESRISVPVHSFASLNIKTTVPEV [PRPH] : 3.98

protein stability index reading for VLYPVPLESYEDIHGTLHLERLAY [PRAME] : 2.38

protein stability index reading for VEYFQQSAVAMYMLYEKQKQQNVA [ZBED1] : 2.14

protein stability index reading for AIQLLSRMEYVHSKNLIYRDVKPE [CSNK1G1] : 2.33

protein stability index reading for GYHQVPGSAAPGSPLAADPACLGQ [FOXJ1] : 4.29

protein stability index reading for AVDGILHMFTPKLDKMLDPQVWRE [SLC6A17] : 2.53

protein stability index reading for QGAPASSFVYVNPEDGRIFAQRTF [PCDHGC5] : 2.78

protein stability index reading for CFIQSSHLIRHQITHTREEQPHGR [ZNF8] : 3.37

protein stability index reading for EPLRSEILSGKFTILNVRDPTGAS [PTPN9] : 3.58

protein stability index reading for LHRTFDPHFLRVPCWKITLFVIVP [MOG] : 3.08

protein stability index reading for PVPEQSALCQGLYFHINQTLREAH [FAM104A] : 2.77

protein stability index reading for ADGARSAVVAAGGGSSGQVTSNGS [CLPTM1] : 5.09

protein stability index reading for FQTLMFLVRDWSFPYEYSYGLQGG [ATL3] : 3.15

protein stability index reading for SRAPQLHLEYRFYKQLGSAGEGLP [CSNK1G1] : 2.84

protein stability index reading for FMLEIVTPTSLSSLSNAVANTMEH [FBXO33] : 2.7

protein stability index reading for KEEAGAPGGGAGMAAGFPYALRAY [CEBPB] : 3.31

protein stability index reading for EEGTSDSNTGSESNSATVEEPPTD [SMARCE1] : 5.67

protein stability index reading for VDSHHEYPAMTFYSPAVMNYSIPS [ESR2] : 2.89

protein stability index reading for DSDDDDDVAVTVDRDRFMDEFFEQ [STX1A] : 5.43

protein stability index reading for LEDYINDRQYDSRGRFGELLLLLP [HNF4A] : 2.22

protein stability index reading for ALGNEGDTFHQDNQPSGLIRTYLG [RHOBTB3] : 3.85

protein stability index reading for WPPSFLSEFRALQFSLMLCAFVGA [SPNS1] : 2.85

protein stability index reading for APHHHHHHSHSGPEISRIIVDPTT [PLK2] : 4.12

protein stability index reading for AAKTLPGGAGKGRTPSAFPQTPAA [EHMT1] : 4.39

protein stability index reading for KHSVLLSASRKSAEQLRIELNAEK [WEE1] : 4.16

protein stability index reading for VREIVKECSNIPLSQPQQGEAMLA [GAN] : 4.31

protein stability index reading for KKKGMYRKAITEAANAARHVAPEI [PWWP2B] : 4.5

protein stability index reading for TLEKCEKVKTMEVTSVSIELEKNF [TRIM39] : 4.15

protein stability index reading for MNELQHDLDVVSDALAKVSRKPSI [TPH1] : 4.42

protein stability index reading for PGVAYPAFLGPDEAFALPDSLLVV [SPSB4] : 2.21

protein stability index reading for PKQLRLINQPLPDLKNVKSKIGST [MAP2] : 3.88

protein stability index reading for EGREAPALVAAGGAPEDDEEDDGR [DENND6A] : 5.72

protein stability index reading for RQPRDELERVRVSCTIIFLASIFQ [TMEM175] : 2.17

protein stability index reading for CTHCSKSFRQRAGLIMHQVTHFRG [ZNF449] : 3.02

protein stability index reading for KQQIANLDKQAKLSRAYDGTTYLP [USP39] : 3.87

protein stability index reading for TEPEDDRGPVVPKHSTFGQSLTQR [GNAS] : 4.85
